Tgt: T1, Human Serum Albumin (human, UniProt P02768 25-609)
T1 construct: mature; Bought purified serum protein; Immobilised on CM5 chips; also called HSA; human SA
Method Notes: SPR (BIAcore), purified dAb
Measured Attribute: Kd (nM)
Kindly answer with a numeric value in nM, unit omitted.

### Prompt Look at this binder and give its reported Kd. DOM7h-14-109 (other, pDOM5 myc tag not included) VL: DIQMTQSPSSLFASVGDRVTITCRASQWIGSQLSWYQQKPGKAPKLLIMWRSSLQSGVPSRFSGSGSGTDFTLTISSLQPEDFATYYCAQGLRKPKTFGQGTKVKIKW
### Response 108
